Assay: Therapeutic index, ratio of CC50 for human BE(2)-C cells to IC50 for Western equine encephalitis virus
Settings: read-out: Ratio CC50/IC50
VALUE_KIND: selectivity ratio

compound_structure=O=C(NCCc1ccncc1)C1CCN(C(=O)c2cc3ccccc3n2Cc2c(F)cccc2F)CC1 meas_value=50

---

Experiment: Cytotoxicity against human BE(2)-C cells after 18 to 20 hrs by MTT assay
Type: cell-based
Conditions: be(2)-c
# label 1 = CC50 below 80 µM (exclusive); label 0 = CC50 at/above 80 µM

molecule=COc1ccc(CCNC(=O)C2CCN(C(=O)c3cc4ccccc4n3Cc3ccc(Cl)cc3)CC2)cc1 group="label 1"
molecule=O=C(NCCc1ccncc1)C1CCN(C(=O)c2cc(F)cn2Cc2ccc(Cl)cc2)CC1 group="label 1"
molecule=O=C(NCCc1ccncc1)C1CCN(C(=O)c2cc3ccc(F)cc3n2Cc2ccc(Cl)cc2)CC1 group="label 1"
molecule=CN(Cc1ccccc1)C(=O)C1CCN(C(=O)c2cc3ccccc3n2Cc2ccc(Cl)cc2)CC1 group="label 0"
molecule=O=C(NCCc1ccccn1)C1CCN(C(=O)c2cc3ccccc3n2Cc2ccc(Cl)cc2)CC1 group="label 0"
molecule=CN1CCN(C(=O)C2CCN(C(=O)c3cc4ccccc4n3Cc3ccc(Cl)cc3)CC2)CC1 group="label 1"
molecule=O=C(NCCc1ccncc1)C1CCN(C(=O)c2nc3ccccc3n2Cc2ccc(Cl)cc2)CC1 group="label 1"
molecule=O=C(NCCc1cccnc1)C1CCN(C(=O)c2cc3ccccc3n2Cc2ccc(Cl)cc2)CC1 group="label 1"
molecule="O=C(NCC1COc2cnccc21)C1CCN(C(=O)c2cc3ccccc3n2Cc2ccc(Cl)cc2)CC1 (configuration not stated)" group="label 1"
molecule="CC(NC(=O)C1CCN(C(=O)c2cc3ccccc3n2Cc2ccc(Cl)cc2)CC1)c1ccncc1 (racemic)" group="label 0"
molecule=CN(Cc1ccccc1)C(=O)C1CCN(C(=O)c2cc3ccccc3n2Cc2ccccc2)CC1 group="label 1"
